- assay_overview: qHTS for Inhibitors of human tyrosyl-DNA phosphodiesterase 1 (TDP1): qHTS in cells in presence of CPT; also: nearly all actives have a fitted effect of over 55% in size
- condition_notes: chicken DT40 Tdp1-/-;hTDP1 cells + 20 nM CPT, ATP luminescence, 48 h; series mostly up to 46.2 µM
The whole screen tested about 420,000 compounds, of which about 50,000 (12%) were called active. Another 26% or so got no clear call; they are omitted. Calls follow the shape of the dose curve; as a rule, active = well fitted inhibition curve with a large enough effect; inconclusive = small, poorly fitted or top-dose-only effect; inactive = flat fitted curve, though single readings scatter. For the sample, actives were picked, then their nearest neighbours and some compounds at random.
Please answer using one outcome listed in 1 = active, 0 = inactive

Below, 5 compounds whose answers are already recorded.
COCC(=O)N1CCCC(C(=O)c2ccc(C(F)(F)F)cc2)C1 (centres undefined) = 0
Cc1oc2cc3oc(=O)ccc3cc2c1C = 0
COC(=O)c1ccc2nc(-c3ccc(C)cc3)c(Cc3ccc(OC)cc3C)n2c1 = 1
Cc1ccccc1NC(=O)c1cc2c([nH]c1=O)CC(C)(C)CC2=O = 0
O=C(c1ccc(Cl)c(Cl)c1)N1CCCC1 = 0

Ask: Lab log entry: COC(=O)c1ccc(CSc2nc3cc(Cl)ccc3o2)cc1 — outcome as called in the assay?
Reply: 0

Ask: Lab log entry: Cn1cc(CN2CCCC(CO)C2)c(-c2ccc(Oc3ccccc3)cc2)n1 (centres undefined) — outcome as called in the assay?
Reply: 0

Ask: Lab log entry: COC(=O)c1ccc2nc(-c3cccc(Br)c3)c(Cc3ccccc3C(F)(F)F)n2c1 — outcome as called in the assay?
Reply: 0

Ask: Lab log entry: O=C(NCCO)C(=O)NCC(c1ccc2c(c1)OCO2)N1CCN(c2ccc(F)cc2)CC1 (centres undefined) — outcome as called in the assay?
Reply: 0

Ask: Lab log entry: O=C(NC1CCCC1)C(c1c(F)cccc1Cl)N(C(=O)c1csnn1)C1CC1 (centres undefined) — outcome as called in the assay?
Reply: 0

###

- assay_overview: qHTS for Inhibitors of human tyrosyl-DNA phosphodiesterase 1 (TDP1): qHTS in cells in presence of CPT; also: nearly all actives have a fitted effect of over 55% in size
- condition_notes: chicken DT40 Tdp1-/-;hTDP1 cells + 20 nM CPT, ATP luminescence, 48 h; series mostly up to 46.2 µM
In all, about 420,000 compounds went through this assay and about 50,000 (12%) were called active. Inconclusive results (about 26%) are left out. Calls come from the whole dose curve; as a rule, active = well fitted inhibition curve with a large enough effect; inconclusive = small, poorly fitted or top-dose-only effect; inactive = flat fitted curve, though single readings scatter. This excerpt belongs to a sample that is enriched for actives.
Please answer using one outcome listed in active, inactive

Below, 5 compounds whose answers are already recorded.
O=C(NCCc1ccc(Cl)cc1)C1CC(=O)N(C2CCCCC2)C1 (stereo unspecified) = inactive
S=C(NCCc1ccccc1)N1CCCCC1 = inactive
CSc1ccccc1NC(=O)CN(C)CC(=O)Nc1cccc(Br)c1 = inactive
O=C(Nc1ncc([N+](=O)[O-])s1)C1COc2ccccc2O1 (stereo unspecified) = active
COc1ccc(C2C(=O)N(C3CCCCCC3)CC(=O)N2CCc2ccc(Cl)cc2)cc1OC (stereo unspecified) = active

Consider the record given below.
Ask: Lab log entry: C/C(=N/NC(=O)C1COc2ccccc2O1)c1ccco1 (stereo unspecified) — outcome as called in the assay?
Reply: inactive

###

- assay_overview: qHTS for Inhibitors of human tyrosyl-DNA phosphodiesterase 1 (TDP1): qHTS in cells in presence of CPT; also: nearly all actives have a fitted effect of over 55% in size
- condition_notes: chicken DT40 Tdp1-/-;hTDP1 cells + 20 nM CPT, ATP luminescence, 48 h; series mostly up to 46.2 µM
The whole screen tested about 420,000 compounds, of which about 50,000 (12%) were called active. Inconclusive results (about 26%) are left out. Calls come from the whole dose curve; as a rule, active = well fitted inhibition curve with a large enough effect; inconclusive = small, poorly fitted or top-dose-only effect; inactive = flat fitted curve, though single readings scatter. The entries come from a sample that favours actives as a whole.
Please answer using one outcome listed in true (active), false (inactive)

O=C(Nc1ccc(Cl)cc1)Nc1ccc(Oc2cccnc2)nc1 = true
CC1CCCCC12NC(=O)N(CC(=O)OCC(=O)NCc1ccc(F)cc1)C2=O (stereo not given) = false
CCS(=O)(=O)NCCc1ccc(OC)c(OC)c1 = false
Cc1cc(NCc2cccnc2)no1 = false
CCC(CC)C(=O)N1CCN(c2cccc(C)c2C)CC1 = true

Ask: Lab log entry: COc1ccc(-c2[nH]ncc2CN(C)Cc2c(C)n[nH]c2C)c(OC)c1 — outcome as called in the assay?
Reply: false

Ask: Lab log entry: Cc1cc(NC(=O)CSc2ncc(C(=O)Nc3ccc(Cl)cc3)c(=O)n2C)no1 — outcome as called in the assay?
Reply: false

Ask: Lab log entry: CCCCCNC(=O)c1cccnc1SCC(=O)Nc1ccccc1OC — outcome as called in the assay?
Reply: false

Ask: Lab log entry: Cc1ccc(-c2csc(-c3cc(C)on3)n2)cc1 — outcome as called in the assay?
Reply: false

Ask: Lab log entry: O=C(NC1CCCC1)c1ccc(Br)s1 — outcome as called in the assay?
Reply: false
